Hi there, I'd appreciate the recorded Ki for every entry that follows.
tgt: Cannabinoid receptor 2 (Homo sapiens, UniProt P34972)
Sequence (P34972 whole entry): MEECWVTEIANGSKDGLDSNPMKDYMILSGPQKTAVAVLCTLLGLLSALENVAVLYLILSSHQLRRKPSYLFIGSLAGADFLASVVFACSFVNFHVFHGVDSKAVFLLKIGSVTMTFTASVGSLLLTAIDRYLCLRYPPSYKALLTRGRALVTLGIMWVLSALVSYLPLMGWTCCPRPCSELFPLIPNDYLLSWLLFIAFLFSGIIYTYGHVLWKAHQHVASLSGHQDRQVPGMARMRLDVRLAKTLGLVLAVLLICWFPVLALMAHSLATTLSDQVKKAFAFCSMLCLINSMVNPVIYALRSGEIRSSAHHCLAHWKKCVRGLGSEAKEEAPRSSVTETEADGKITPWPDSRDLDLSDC
assay-name: Displacement of [3H]-CP55,940 from human CB2 receptor transfected in CHOK1 cells
Kindly answer with a numeric value in µM, unit omitted.

Sample COc1c(C)c(C)c2oc(=O)c(Cc3ccc(F)cc3)cc2c1C — what was its Ki?
1.48

Sample COc1ccccc1Cc1cc2c(C)ccc(C)c2oc1=O — what was its Ki?
6.83

----------
tgt: G-protein coupled receptor 55 (Homo sapiens, UniProt Q9Y2T6)
Sequence (Q9Y2T6 whole entry): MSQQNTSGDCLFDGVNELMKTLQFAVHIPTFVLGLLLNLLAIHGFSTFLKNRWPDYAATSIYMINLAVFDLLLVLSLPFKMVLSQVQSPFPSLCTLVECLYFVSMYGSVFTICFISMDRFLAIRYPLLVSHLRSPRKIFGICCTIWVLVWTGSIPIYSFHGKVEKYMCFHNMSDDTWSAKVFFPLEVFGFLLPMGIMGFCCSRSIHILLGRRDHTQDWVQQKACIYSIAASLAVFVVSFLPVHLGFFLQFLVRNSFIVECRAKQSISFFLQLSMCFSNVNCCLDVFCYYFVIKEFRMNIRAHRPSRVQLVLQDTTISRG
assay-name: Antagonist activity at human GPR55 transfected in CHO cells assessed as inhibition of LPI-induced beta-arrestin recruitment incubated 60 mins prior to LPI addition by beta-arrestin translocation assay
parameter: log10 IC50 (log10 of the value in µM)
The figures below represent log10 of IC50, where IC50 is stated in µM.

Lab note: need log10 IC50 for COc1ccccc1Cc1cc2c(C)c(OC)c(C)c(C)c2oc1=O on G-protein coupled receptor 55 (Homo sapiens, UniProt Q9Y2T6), anyone have it?
-0.01

Lab note: need log10 IC50 for O=c1oc2ccc3ccccc3c2cc1Cc1ccccc1 on G-protein coupled receptor 55 (Homo sapiens, UniProt Q9Y2T6), anyone have it?
0.45

Lab note: need log10 IC50 for CCCCCc1cc(OC)c2cc(Cc3ccc(F)cc3)c(=O)oc2c1 on G-protein coupled receptor 55 (Homo sapiens, UniProt Q9Y2T6), anyone have it?
1.00

Lab note: need log10 IC50 for Cc1ccc(C(C)C)c2cc(Cc3ccccc3)c(=O)oc12 on G-protein coupled receptor 55 (Homo sapiens, UniProt Q9Y2T6), anyone have it?
0.73

Lab note: need log10 IC50 for CCCCCc1cc(O)c2cc(Cc3cccc(O)c3)c(=O)oc2c1 on G-protein coupled receptor 55 (Homo sapiens, UniProt Q9Y2T6), anyone have it?
1.03

Lab note: need log10 IC50 for Cc1ccccc1Cc1cc2c(C)c(O)c(C)c(C)c2oc1=O on G-protein coupled receptor 55 (Homo sapiens, UniProt Q9Y2T6), anyone have it?
0.71
